Target: acetylcholine receptor
Test: SPR, peptide at 10 uM on acetylcholine receptor
endpoint.label: Binding affinity (RU)
Entry rule: numbers only, all in RU.

// solved cases for Binding affinity (RU) follow
| binder | unit.abbreviation | Binding affinity (RU) |
| --- | --- | --- |
| KPCVK [5mer-670] | RU | 23 |
| KDTMR [5mer-681] | RU | 18 |
| KMNAK [5mer-671] | RU | 21 |
| RKWKR [5mer-958] | RU | 11 |
| RNTVR [5mer-969] | RU | 27 |

Qu. Tell us which Binding affinity (RU) value is on record for RKPHR [5mer-980]
Ans. 33

Qu. Determine its reported Binding affinity (RU): KETHR [5mer-674]
Ans. 22

Qu. Kindly indicate its recorded Binding affinity (RU). Item: RYSFK [5mer-649]
Ans. 20

Qu. Give recorded Binding affinity (RU). RPEFR [5mer-991]
Ans. 24

Qu. Identify measured Binding affinity (RU) corresponding to KFDWK [5mer-698]
Ans. 12

Hello, the source for this data is patent US20250011363A1, in case you need it.
